FYI, the data here is from paper PMC2907371.

Experiment: Cytotoxicity assay (MTT method)
Assay type: cell-based
Conditions: human, concentration with half maximal inhibition on growth and survival of HEp-2 cells, mean (SD), n = 3
Mark Condition met for CC50 at 72 h under 100 µM, Condition not met if at or over.

[[record]]
compound = "NC(=O)c1ncn([C@@H]2O[C@H](CO)[C@@H](O)[C@H]2O)n1 [Ribavirin, reference compound]"
answer_label = "Condition not met"

[[record]]
compound = "O=C1C=C2O[C@H](c3ccc(O)cc3)[C@@]3(O)C(=O)c4c(O)cc(O)cc4O[C@@]23C2=C1C[C@H](O)[C@@H](c1ccc(O)cc1)O2"
answer_label = "Condition not met"

[[record]]
compound = "O=C1C=C2O[C@H](c3ccc(O)cc3)[C@@]3(O)C(=O)c4c(O)cc(O)cc4O[C@@]23C2=C1C[C@@H](O)[C@@H](c1ccc(O)cc1)O2"
answer_label = "Condition not met"


Ask | Hi there! Is CC50 at 72 h for O=C1C=C2O[C@@H](c3ccc(O)cc3)[C@]3(O)C(=O)c4c(O)cc(O)cc4O[C@]23C2=C1C[C@H](O)[C@@H](c1ccc(O)cc1)O2 below 100 µM, do you know?
Reply | Condition not met

Ask | Hi there! Is CC50 at 72 h for O=C1c2c(O)cc(O)cc2O[C@H](c2ccc(O)cc2)[C@H]1[C@@H]1C(=O)c2c(O)cc(O)cc2O[C@@H]1c1ccc(O)cc1 below 100 µM, do you know?
Reply | Condition met
